- ASSAY TARGET: T1, His-tagged PCSK9Δhelix (human, UniProt Q8NBP7 31-152; Q8NBP7 168-692)
- T1 construct: Construct M1-Q692 with engineered TEV site, cut by TEV protease; new N-terminus of the catalytic domain is S-A168; also called His-PCSK9Δhelix
- T1 sequence (Q8NBP7 31-152, stated change not applied, chain 1 of 2): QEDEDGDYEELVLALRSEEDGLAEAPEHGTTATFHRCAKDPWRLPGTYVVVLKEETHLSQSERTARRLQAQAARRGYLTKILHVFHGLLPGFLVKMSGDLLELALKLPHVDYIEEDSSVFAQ
- T1 sequence (Q8NBP7 other isoform, or with tags, fused parts or gaps mutant, chain 2 of 2): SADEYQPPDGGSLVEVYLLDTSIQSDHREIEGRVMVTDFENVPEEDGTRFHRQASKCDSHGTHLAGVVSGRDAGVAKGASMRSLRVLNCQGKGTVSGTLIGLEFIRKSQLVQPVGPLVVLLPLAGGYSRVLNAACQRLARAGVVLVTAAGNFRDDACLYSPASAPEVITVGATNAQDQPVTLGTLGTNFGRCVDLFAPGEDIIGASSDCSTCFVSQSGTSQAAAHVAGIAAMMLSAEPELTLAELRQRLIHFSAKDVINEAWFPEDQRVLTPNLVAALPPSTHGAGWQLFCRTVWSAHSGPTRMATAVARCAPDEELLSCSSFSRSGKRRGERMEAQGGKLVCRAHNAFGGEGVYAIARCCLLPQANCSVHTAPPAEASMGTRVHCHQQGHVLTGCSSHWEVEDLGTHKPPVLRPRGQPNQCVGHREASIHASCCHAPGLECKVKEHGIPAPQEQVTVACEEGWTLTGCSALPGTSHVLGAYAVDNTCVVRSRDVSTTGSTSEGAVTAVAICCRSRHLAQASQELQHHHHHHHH
- ASSAY INFO: TR-FRET competition; His-PCSK9Δhelix, competitor Ab20
Square brackets hold non-standard residues; d marks the D form. Ends that are not written are not given here. * marks the point of attachment. Trp(6-Br) = N[C@@H](Cc1c[nH]c2cc(Br)ccc12)C(=O)O; Pentanoyl = CCCCC(=O)*

BINDER	IC50 / µM
WNLVRIGLLR (also: further groups not given here, Structure printed only as a drawing) [Compound 134]	4.2
Pentanoyl-[Trp(6-Br)]NLVRIGLTR-NH2 (SMILES CCCCC(=O)N[C@@H](Cc1c[nH]c2cc(Br)ccc12)C(=O)N[C@@H](CC(N)=O)C(=O)N[C@@H](CC(C)C)C(=O)N[C@H](C(=O)N[C@@H](CCCNC(=N)N)C(=O)N[C@H](C(=O)NCC(=O)N[C@@H](CC(C)C)C(=O)N[C@H](C(=O)N[C@@H](CCCNC(=N)N)C(N)=O)[C@@H](C)O)[C@@H](C)CC)C(C)C) [Compound 187]	36
